This section presents molecules with their documented composite z-score values.
target.system: Left-right determination factor 2 (Homo sapiens) (UniProt O00292)
Sequence (O00292 whole entry, looked up): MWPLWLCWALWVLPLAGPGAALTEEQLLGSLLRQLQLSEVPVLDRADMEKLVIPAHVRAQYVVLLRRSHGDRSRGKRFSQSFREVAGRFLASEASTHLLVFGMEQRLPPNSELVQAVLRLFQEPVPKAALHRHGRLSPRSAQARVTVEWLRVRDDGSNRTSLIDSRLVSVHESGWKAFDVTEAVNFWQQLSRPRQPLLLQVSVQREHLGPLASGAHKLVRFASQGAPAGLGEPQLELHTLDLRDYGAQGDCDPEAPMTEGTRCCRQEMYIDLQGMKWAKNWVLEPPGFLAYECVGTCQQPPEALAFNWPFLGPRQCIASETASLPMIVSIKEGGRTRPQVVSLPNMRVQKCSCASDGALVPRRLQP
assay.procedure: small molecules binding LEFTY2 protein – biochemical, small-molecule microarray, 635 nm fluorescence scan, primary screen (AID 1110)
cond: higher = more signal

>  <molecule>
COC(=O)c1nc2oc1CC[C@@H](CO)NC(=O)N(C)Cc1cn(nn1)C[C@H](Cc1ccccc1)NC2=O

>  <target.system>
Left-right determination factor 2 (Homo sapiens) (UniProt O00292)

>  <composite z-score>
-1.11

$$$$
>  <molecule>
O=C1O[C@H](c2ccccc2)[C@H](c2ccccc2)N2[C@H]1[C@@H](C(=O)N1CCCCCCC1)[C@]1(C(=O)Nc3ccc(C#CC4=CCCCC4)cc31)[C@H]2c1ccc(O)cc1

>  <target.system>
Left-right determination factor 2 (Homo sapiens) (UniProt O00292)

>  <composite z-score>
1.78

$$$$
>  <molecule>
COc1ccc(C(=O)Nc2cccc(CN3C(=O)[C@@]4(O[C@@H](CC(=O)N5Cc6ccccc6C[C@H]5CO)[C@H]([Si](C)(C)c5ccc(OC)cc5)[C@H]4C)c4ccccc43)c2)cc1

>  <target.system>
Left-right determination factor 2 (Homo sapiens) (UniProt O00292)

>  <composite z-score>
0.904

$$$$
>  <molecule>
COCCCNC(=O)[C@]1(Cc2ccccc2N=[N+]=[N-])N=C(c2ccc(OCCCO)cc2)O[C@@H]1c1ccccc1CN=[N+]=[N-]

>  <target.system>
Left-right determination factor 2 (Homo sapiens) (UniProt O00292)

>  <composite z-score>
0.331

$$$$
>  <molecule>
O=c1cccc(-c2ccccc2)o1

>  <target.system>
Left-right determination factor 2 (Homo sapiens) (UniProt O00292)

>  <composite z-score>
-0.491

$$$$

Kindly review the next molecule as well.
input: So what does the record say about composite z-score for `COC(=O)[C@@]1(Cc2ccccc2)[C@H]2c3cc(C(=O)N(C)C)n(Cc4cc(F)c(F)c(F)c4)c3C[C@H]2CN1C(=O)c1ccccc1` ?
output: -0.762
